B1: glmS ribozyme (parent)
chain: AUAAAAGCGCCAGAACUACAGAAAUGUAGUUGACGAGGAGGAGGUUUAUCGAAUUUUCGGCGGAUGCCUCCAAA

- Variants of: B1
- Experiment: self-cleavage kobs at 640 uM GlcN6P; higher = faster cleavage; RNA array
- Condition Notes: with glucosamine-6-phosphate
Variants at the floor of the assay were thinned out.
Test Readout: self-cleavage kobs at 640 uM GlcN6P (s⁻¹)
Please reply with the bare figure in s⁻¹ and do not write the unit itself.

Recorded self-cleavage kobs at 640 uM GlcN6P, per entry:
• A42G U47G C67U = 0.00108
• U54C A64G = 0.00883

Dear colleague, I am looking for the recorded self-cleavage kobs at 640 uM GlcN6P of the following variant: G51A G66A U69A 0.000177

Do the same for U31C U54A C67G please 8.75e-05

Do the same for A53C U57G please 9.98e-05

Do the same for U54A C58A please 9.65e-05

Do the same for G13U U30A please 3.03e-05

Do the same for G13U U46G please 5.44e-05

Do the same for C11U G29A please 9.17e-05

Do the same for C8A U69A please 0.00169

Do the same for A53U U57G please 3.61e-05

Do the same for A6U U56G please 3.35e-05

Do the same for G66C C70U please 0.000285

Do the same for U30A G40U please 0.000117

Do the same for C11U U65G please 6.28e-05

Do the same for A42C U69G please 0.00686
